Form field: pIC50 (one value per entry).
tgt: plant Photosystem II (PSII), D1 protein QB site, pea (Lathyrus oleraceus, UniProt P06585)
Construct: native D1 within whole PSII complex (D1/D2 reaction centre) in isolated thylakoid membranes from 4-week-old pea leaves; no tag, not purified further
protocolDetails: DPIP photoreduction (Hill reaction, […] nm) in isolated thylakoid membranes, Langmuir isotherm fit
conditionDetails: pH 7.2, 100 µM DPIP, 5 mM NH4Cl, 5 mM MgCl2, 15 µg/mL Chl, white light 500 µmol photons m^-2 s^-1, 10 min dark preincubation at room temperature, competitive with plastoquinone, read-out: DPIP Photoreduction / I50
API: returns pIC50 as number; meaning -log10 of concentration in mol/L.

# example entries with known answers
CSc1nnc(C(C)(C)C)c(=O)n1N [Metribuzin]
6.81
CN(C)C(=O)Nc1ccc(Cl)c(Cl)c1 [Diuron]
7.14
CCNc1nc(Cl)nc(NC(C)(C)C)n1 [Terbuthylazine]
6.96

[in] Would you kindly share the measured pIC50 for CC(C)N1C(=O)c2ccccc2NS1(=O)=O [Bentazon] ?
[out] 5.21
